# Tested on: EfPiwi piRISC loaded with piRNA #1 (26 nt)
# Measurement Notes: pre-steady-state target cleavage rate (min^-1); auxiliary factor: 500 nM Ephydatia muelleri Gtsf1; guide: piRNA #1 5'p-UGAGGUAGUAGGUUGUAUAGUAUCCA; MIWI and MILI are mouse PIWI proteins and EfPiwi is from a freshwater sponge; tags in brackets are library labels; higher = faster piRNA-guided slicing of the target
Property Name: pre-steady-state target cleavage rate

Biosequence: GGAGACGAAACAAUACAACCUACUACCUCA
Target Or System: EfPiwi piRISC loaded with piRNA #1 (26 nt)
Property Name: pre-steady-state target cleavage rate
Number: 0.00789
--
Biosequence: GGAGUGGAUACUAUAACAACCUACUACCUCA
Target Or System: EfPiwi piRISC loaded with piRNA #1 (26 nt)
Property Name: pre-steady-state target cleavage rate
Number: 0.0556
--
Biosequence: GGAGACCUUACUAUACAACCUUCUACCUCA
Target Or System: EfPiwi piRISC loaded with piRNA #1 (26 nt)
Property Name: pre-steady-state target cleavage rate
Number: 0.00767
--
Biosequence: GGAGACCUAACUAUACAACGUACUACCUCA
Target Or System: EfPiwi piRISC loaded with piRNA #1 (26 nt)
Property Name: pre-steady-state target cleavage rate
Number: 0.00454
--
Biosequence: GGAGAGGAAACUAUACAACCUACUAGCUCA
Target Or System: EfPiwi piRISC loaded with piRNA #1 (26 nt)
Property Name: pre-steady-state target cleavage rate
Number: 0.00276
--
Biosequence: GGAGAGGAUACUAAACAACGUACUACCUCA
Target Or System: EfPiwi piRISC loaded with piRNA #1 (26 nt)
Property Name: pre-steady-state target cleavage rate
Number: 0.00367
--
Biosequence: GGAGACCAUACAAUACAACCUACUACCUGA
Target Or System: EfPiwi piRISC loaded with piRNA #1 (26 nt)
Property Name: pre-steady-state target cleavage rate
Number: 0.00286
--
Biosequence: GGAGACGUUACUAUACUACCUACUACCUCA
Target Or System: EfPiwi piRISC loaded with piRNA #1 (26 nt)
Property Name: pre-steady-state target cleavage rate
Number: 0.00494
--
Biosequence: GGAGUGAUACUAUACAACCUACUACCUCA
Target Or System: EfPiwi piRISC loaded with piRNA #1 (26 nt)
Property Name: pre-steady-state target cleavage rate
Number: 0.186
--
Biosequence: GGAGACCAUACUAUACAAGCUACUACGUCA
Target Or System: EfPiwi piRISC loaded with piRNA #1 (26 nt)
Property Name: pre-steady-state target cleavage rate
Number: 0.00359
--
Biosequence: GGAGACCUAUCUAUACAACCUACUGCCUCA
Target Or System: EfPiwi piRISC loaded with piRNA #1 (26 nt)
Property Name: pre-steady-state target cleavage rate
Number: 0.00997
--
Biosequence: GGAGACCUAACUAUAUAACCUACUACCUCA
Target Or System: EfPiwi piRISC loaded with piRNA #1 (26 nt)
Property Name: pre-steady-state target cleavage rate
Number: 0.0063
--
Biosequence: GGAGAGGAUACUAUACAACCGACUACCUCA
Target Or System: EfPiwi piRISC loaded with piRNA #1 (26 nt)
Property Name: pre-steady-state target cleavage rate
Number: 0.00504
--
Biosequence: GGAGUGGAAACUUUACAACCUACUACCUCA
Target Or System: EfPiwi piRISC loaded with piRNA #1 (26 nt)
Property Name: pre-steady-state target cleavage rate
Number: 0.00583
--
Biosequence: GGAGAGGAUACAAUACAACCUAGUACCUCA
Target Or System: EfPiwi piRISC loaded with piRNA #1 (26 nt)
Property Name: pre-steady-state target cleavage rate
Number: 0.00263
--
Biosequence: GGAGACGAUCACUAUACAACCUACUACCUCA
Target Or System: EfPiwi piRISC loaded with piRNA #1 (26 nt)
Property Name: pre-steady-state target cleavage rate
Number: 0.0768
--
Biosequence: GGAGAGGAUACUAUACAAGCAACUACCUCA
Target Or System: EfPiwi piRISC loaded with piRNA #1 (26 nt)
Property Name: pre-steady-state target cleavage rate
Number: 0.00405
--
Biosequence: GGAGACGAUACUAUACAGACCUACUACCUCA
Target Or System: EfPiwi piRISC loaded with piRNA #1 (26 nt)
Property Name: pre-steady-state target cleavage rate
Number: 0.0101
--
Biosequence: GGAGACCUAACUAUACAACCUCCUACCUCA
Target Or System: EfPiwi piRISC loaded with piRNA #1 (26 nt)
Property Name: pre-steady-state target cleavage rate
Number: 0.00446
--
Biosequence: GGAGAGGUUACUAUACAACCUUCUACCUCA
Target Or System: EfPiwi piRISC loaded with piRNA #1 (26 nt)
Property Name: pre-steady-state target cleavage rate
Number: 0.00505
--
Biosequence: GGAGACCUUACAAUACAUCCUACUACCUCA
Target Or System: EfPiwi piRISC loaded with piRNA #1 (26 nt)
Property Name: pre-steady-state target cleavage rate
Number: 0.00553
--
Biosequence: GGAGACGUUAGUAUACAACCUACUACCUCA
Target Or System: EfPiwi piRISC loaded with piRNA #1 (26 nt)
Property Name: pre-steady-state target cleavage rate
Number: 0.00686
--
Biosequence: GGAGUGCAUACUAUACAACCUUCUACCUCA
Target Or System: EfPiwi piRISC loaded with piRNA #1 (26 nt)
Property Name: pre-steady-state target cleavage rate
Number: 0.00467
--
Biosequence: GGAGACGAUACUAUACAACGUACUACCACA
Target Or System: EfPiwi piRISC loaded with piRNA #1 (26 nt)
Property Name: pre-steady-state target cleavage rate
Number: 0.0042
--
Biosequence: GGAGACCAUACUAUACAACCUACUAGGAGA [g6:g23:cont:t1A]
Target Or System: EfPiwi piRISC loaded with piRNA #1 (26 nt)
Property Name: pre-steady-state target cleavage rate
Number: 0.00788
--
Biosequence: GGAGACGAUACUAUACAAGCUACUACCUGA
Target Or System: EfPiwi piRISC loaded with piRNA #1 (26 nt)
Property Name: pre-steady-state target cleavage rate
Number: 0.00333
--
Biosequence: GGAGACCAUUACUAUACAACCUACUACCUCA
Target Or System: EfPiwi piRISC loaded with piRNA #1 (26 nt)
Property Name: pre-steady-state target cleavage rate
Number: 0.148
